# MEASURED TARGET: Vascular endothelial growth factor receptor 2 (Homo sapiens, UniProt P35968)
# Sequence (P35968 whole entry): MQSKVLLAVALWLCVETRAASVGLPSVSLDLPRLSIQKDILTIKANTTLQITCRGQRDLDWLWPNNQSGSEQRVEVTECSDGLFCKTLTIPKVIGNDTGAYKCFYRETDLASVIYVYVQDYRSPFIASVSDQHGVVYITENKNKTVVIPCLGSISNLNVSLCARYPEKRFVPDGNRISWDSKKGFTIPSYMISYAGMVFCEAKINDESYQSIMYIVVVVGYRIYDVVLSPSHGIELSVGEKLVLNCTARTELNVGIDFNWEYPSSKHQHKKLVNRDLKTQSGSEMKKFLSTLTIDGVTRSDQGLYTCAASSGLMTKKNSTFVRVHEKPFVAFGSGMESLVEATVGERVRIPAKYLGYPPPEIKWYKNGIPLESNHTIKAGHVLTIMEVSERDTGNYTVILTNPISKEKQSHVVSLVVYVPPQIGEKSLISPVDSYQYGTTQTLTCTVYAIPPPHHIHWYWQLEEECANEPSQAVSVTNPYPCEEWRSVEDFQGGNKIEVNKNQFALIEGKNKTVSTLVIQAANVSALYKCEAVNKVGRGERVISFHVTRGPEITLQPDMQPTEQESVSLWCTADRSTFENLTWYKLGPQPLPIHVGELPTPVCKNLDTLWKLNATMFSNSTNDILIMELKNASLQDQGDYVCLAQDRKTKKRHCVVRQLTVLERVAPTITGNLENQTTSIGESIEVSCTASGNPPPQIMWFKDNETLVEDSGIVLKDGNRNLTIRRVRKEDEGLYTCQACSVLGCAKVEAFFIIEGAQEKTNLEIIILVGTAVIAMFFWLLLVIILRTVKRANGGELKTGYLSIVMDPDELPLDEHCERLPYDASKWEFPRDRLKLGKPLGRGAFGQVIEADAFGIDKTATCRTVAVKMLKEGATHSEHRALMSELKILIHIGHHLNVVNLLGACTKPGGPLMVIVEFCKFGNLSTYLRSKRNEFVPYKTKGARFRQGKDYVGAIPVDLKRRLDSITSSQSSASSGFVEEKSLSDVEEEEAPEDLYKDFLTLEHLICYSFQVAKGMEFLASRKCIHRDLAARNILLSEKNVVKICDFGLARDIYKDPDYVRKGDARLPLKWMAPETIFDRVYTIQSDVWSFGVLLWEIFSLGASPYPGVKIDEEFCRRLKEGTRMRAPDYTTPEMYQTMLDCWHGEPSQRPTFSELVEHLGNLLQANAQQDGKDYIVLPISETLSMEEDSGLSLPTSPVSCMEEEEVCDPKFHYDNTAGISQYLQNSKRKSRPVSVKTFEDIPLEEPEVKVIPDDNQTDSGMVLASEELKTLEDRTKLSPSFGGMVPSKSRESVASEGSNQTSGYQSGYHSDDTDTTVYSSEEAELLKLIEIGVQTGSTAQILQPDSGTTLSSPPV
RESULT TYPE: IC50 (nM)

Solved entries:
>  <MOLECULAR STRING>
NS(=O)(=O)c1ccccc1NC(=O)Nc1nc(-c2ccccc2)n(-c2ccc(Cl)cc2)n1

>  <IC50, nM>
271

$$$$
>  <MOLECULAR STRING>
COc1ccc(-n2nc(NC(=O)Nc3cccc(S(N)(=O)=O)c3)nc2-c2ccccc2)cc1

>  <IC50, nM>
183

$$$$
>  <MOLECULAR STRING>
Cc1ccc(NC(=O)Nc2nc(-c3ccccc3)n(-c3cccc(Cl)c3)n2)cc1S(N)(=O)=O

>  <IC50, nM>
96.2

$$$$
>  <MOLECULAR STRING>
Cc1ccc(NC(=O)Nc2nc(-c3ccccc3)n(-c3ccc(Cl)cc3)n2)cc1S(N)(=O)=O

>  <IC50, nM>
541

$$$$

[I] COc1ccc(-n2nc(NC(=O)Nc3ccc(C)c(S(N)(=O)=O)c3)nc2-c2ccccc2)cc1
[II] NS(=O)(=O)c1ccc(NC(=O)Nc2nc(-c3ccccc3)n(-c3ccc(Cl)cc3)n2)cc1
Problem: Which has the higher IC50, I or II ? Use the label to indicate which entry you chose.
Solution: I

====

# MEASURED TARGET: Vascular endothelial growth factor receptor 2 (Homo sapiens)
RESULT TYPE: IC50 (nM)
Please give a number only; it is taken to be in nM.

Summary: COc1cc(-c2nc(C(=O)Nc3ccccc3)nn2-c2ccc(F)c(Cl)c2)cc(OC)c1OC , Vascular endothelial growth factor receptor 2 (Homo sapiens), IC50 = 19.8

====

# MEASURED TARGET: Carbonic anhydrase 2 (Homo sapiens)
# PROTOCOL DESCRIPTION: Inhibition of recombinant human carbonic anhydrase 2 incubated for 15 mins prior to testing by phenol red based stopped-flow CO2 hydration assay
RESULT TYPE: Ki (nM)

>  <MOLECULAR STRING>
NS(=O)(=O)c1cccc(NC(=O)Nc2nc(-c3ccccc3)n(-c3ccc(F)cc3)n2)c1

>  <MEASURED TARGET>
Carbonic anhydrase 2 (Homo sapiens)

>  <Ki / nM>
99

$$$$

[P] Cc1ccc(NC(=O)Nc2nc(-c3ccccc3)n(-c3ccc(Cl)cc3)n2)cc1S(N)(=O)=O
[Q] NS(=O)(=O)c1ccc(NC(=O)Nc2nc(-c3ccccc3)n(-c3ccc(Cl)cc3)n2)cc1
Problem: Of P and Q , which carries the smaller reported Ki figure? Use the label to indicate which entry you chose.
Solution: Q
(Q: 84.6 nM, P: 127 nM)

====

# MEASURED TARGET: Carbonic anhydrase 1 (Homo sapiens)
# Sequence (P00915 whole entry): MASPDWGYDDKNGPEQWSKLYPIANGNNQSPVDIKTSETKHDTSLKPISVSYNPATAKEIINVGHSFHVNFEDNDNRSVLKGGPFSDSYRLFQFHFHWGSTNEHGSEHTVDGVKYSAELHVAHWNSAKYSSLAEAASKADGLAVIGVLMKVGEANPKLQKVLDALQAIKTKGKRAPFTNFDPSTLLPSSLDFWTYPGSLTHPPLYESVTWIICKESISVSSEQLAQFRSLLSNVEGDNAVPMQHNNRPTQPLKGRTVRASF
# PROTOCOL DESCRIPTION: Inhibition of recombinant human carbonic anhydrase 1 incubated for 15 mins prior to testing by phenol red based stopped-flow CO2 hydration assay
RESULT TYPE: Ki (µM)

Solved entries:
>  <MOLECULAR STRING>
NS(=O)(=O)c1cccc(NC(=O)Nc2nc(-c3ccccc3)n(-c3ccc(Cl)cc3)n2)c1

>  <Ki [µM]>
8.26

$$$$
>  <MOLECULAR STRING>
NS(=O)(=O)c1ccc(CCNC(=O)Nc2nc(-c3ccccc3)n(-c3cccc(Cl)c3)n2)cc1

>  <Ki [µM]>
0.0618

$$$$

[A] COc1ccc(-n2nc(NC(=O)Nc3ccc(S(N)(=O)=O)cc3)nc2-c2ccccc2)cc1
[B] NS(=O)(=O)c1cccc(NC(=O)Nc2nc(-c3ccccc3)n(-c3cccc(Cl)c3)n2)c1
[C] NS(=O)(=O)c1ccc(NC(=O)Nc2nc(-c3ccccc3)n(-c3cccc(Cl)c3)n2)cc1
Problem: Output the entries ranked by Ki from maximum down to minimum. Respond with an ordered listing of the labels, as requested.
Solution: B, A, C
